System: CEM cells HIV-1 protection, formazan growth assay
Assay: NCI AIDS Antiviral Assay
Measure Name: EC50

Take a look at these entries with their results.
>>> obs_value("CC(C)(C)OC(=O)C1C(=O)C(C(=O)OC(C)(C)C)C23CCCCC12C(C(=O)OC(C)(C)C)C(=O)C3C(=O)OC(C)(C)C (stereo not given)")
"> 30.2 µM"
>>> obs_value("CN(COC(=O)C(C)(C)C)c1nc(N(C)COC(=O)C(C)(C)C)nc(N(C)COC(=O)C(C)(C)C)n1")
"> 100 µM"
>>> obs_value("N#CC1=C(C#N)SCCCS1")
"> 14.8 µM"
>>> obs_value("CCCCc1cc(=O)oc2c3c(c4c(c12)OC(C)(C)C=C4)O[C@H](C)[C@@H](C)[C@H]3O")
"> 63.1 µM"
>>> obs_value("N#Cc1c(N)nc(N)nc1Nc1ccc(I)cc1")
"> 200 µM"
>>> obs_value("C#CCN(Cc1ccc2nc(-c3ccccc3)c(Cl)nc2c1)c1ccc(F)cc1")
"> 200 µM"
>>> obs_value("O=C1OC(c2ccccc2)=N/C1=C\\c1ccc2ccccc2c1")
"> 17.4 µM"
>>> obs_value("CC(=O)/C(=C/n1c(=S)sc2ccccc21)C(=O)Nc1ccc([N+](=O)[O-])cc1")
"> 129 µM"
>>> obs_value("O=C(O)CN1C(=O)c2ccc(NC(=O)C(=O)O)cc2S1(=O)=O")
"> 200 µM"

Field: next compound
API: value(readout= EC50, system= CEM cells HIV-1 protection, formazan growth assay, query= CC(=O)OC1CCC2(C)C(=CCC3C2CCC2(C)C3CC3N(c4ccccc4)C32C(C)=O)C1 (stereo not given) )
6.46 µM

###

System: CEM cells HIV-1 protection, formazan growth assay
Assay: NCI AIDS Antiviral Assay;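 active = compounds giving half or more protection of infected cells from virus-caused growth loss, again on retest; inactive = the rest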
// classify into active, inactive

These solved cases illustrate the format of a correct answer.
>>> category("CCCCCCCCCCCCCCCCNc1ccn(C2OC(COP(=O)(O)OC3CC(n4cc(C)c(=O)[nH]c4=O)OC3CO)C(O)C2O)c(=O)n1 (stereo not given)")
"inactive"
>>> category("CNc1ccc(Cl)cc1S(=O)(=O)c1ccccc1[N+](=O)[O-]")
"active"
>>> category("C=C1c2c(Cl)ccc(O)c2C(O)=C2C(=O)C3(O)C(O)=C(C(N)=O)C(=O)C(N(C)C)C3C(O)C12 (stereo not given)")
"inactive"
>>> category("COc1ccc2c3ccc4c(c3n(C)c2c1)C(=O)c1ccccc1C4=O")
"inactive"

Please look at the following molecule next.
Just curious, what result did `CC(C)C(=O)NC(=S)Nc1ccc([N+](=O)[O-])cc1C#N` get here?
inactive

###

Tested on: CEM cells HIV-1 protection, formazan growth assay
Test: NCI AIDS Antiviral Assay
Method: The ability of compounds to protect human CEM cells from HIV-1 infection is measured as a screen for new compounds capable of inhibiting the HIV virus. Five concentrations of drug were tested on uninfected and infected cells and cell growth was measured using a soluble formazan assay. […] Compounds that provided at least 50% protection were retested. Compounds that provided at least 50% protection on retest were listed as moderately active. […]
Measure Name: EC50

Some entries whose results are on file:
>>> obs_value("CCOC(=O)c1ccc(CS(=O)(=O)c2ccc(C)cc2)c([N+](=O)[O-])c1")
"> 100 µM"
>>> obs_value("CCOC(=O)CC(=Nc1cc(C)on1)N(CC)CC")
"> 676 µM"
>>> obs_value("COc1ccc2nc3ccc(OC)cc3c(S(=O)Cc3ccc([N+](=O)[O-])cc3)c2c1 (stereo unspecified)")
"> 200 µM"
>>> obs_value("Cc1cc(Cl)ccc1N1C(=O)C(=O)C(c2nc3ccccc3s2)C(=O)C1=O")
"> 91.2 µM"
>>> obs_value("COc1cc(Nc2cnc3ccc(C(F)(F)F)cc3n2)cc(OC)c1OC")
"> 35.5 µM"
>>> obs_value("COc1ccc2c(c1)CCN1CCc3cc(OC)c(OC)cc3CC21 (stereo unspecified)")
"> 200 µM"
>>> obs_value("CCOC(=O)c1c2ccccc2n2c(=O)n(-c3ccccc3)nnc12")
"> 200 µM"
>>> obs_value("CC(=O)OCCCCCn1cnc(C(N)=O)c1N")
"> 200 µM"

List reported EC50 for each of these molecules:
1. O=C(O)C1CC2=C(CN1)Cc1ccccc12 (stereo unspecified)
2. CCCCCCCCCCCCCCCCCCCCOC1OC(CO)C(O)C(O)C1O (stereo unspecified)
3. N#CCCN(C1=NN(C(=O)CC(=O)Nc2ccccc2Cl)C(c2ccccc2)C1)c1ccccc1Cl (stereo unspecified)

1: > 9.33 µM; 2: > 3.63 µM; 3: > 36.3 µM

Reference for the values: PubChem BioAssay AID179
